methodSummary: Intrinsic clearance in rat hepatocytes assessed per 10^-6 cells
Assay type: ADME, cell-based, Hepatocyte
propertyMeasured: log10 hepatocyte intrinsic clearance (log10 of the value in µL/min)
Note: values are log10 of hepatocyte intrinsic clearance expressed in µL/min.

Query: Requested field: log10 hepatocyte intrinsic clearance. Item: C=CC(=O)N1CCN2c3c(cnc4cc(-c5c(O)cccc5F)c(Cl)cc34)NC[C@H]2C1
Reply: 1.23

Query: Requested field: log10 hepatocyte intrinsic clearance. Item: C=CC(=O)N1C[C@@H]2COc3cnc4cc(-c5c(O)cccc5F)c(Cl)cc4c3N2C[C@@H]1C
Reply: 1.87

Query: Requested field: log10 hepatocyte intrinsic clearance. Item: C=CC(=O)N1CCN2c3c(cnc4cc(-c5c(C)ccc6[nH]ncc56)c(Cl)cc34)OC[C@@H]2C1 (single isomer, unassigned; atropisomer 2)
Reply: 1.88

Query: Requested field: log10 hepatocyte intrinsic clearance. Item: C=CC(=O)N1CCN2c3c(cnc4cc(-c5c(C)ccc6[nH]ncc56)c(Cl)cc34)OC[C@H]2C1 (single isomer, unassigned; atropisomer 1)
Reply: 2.24

Query: Requested field: log10 hepatocyte intrinsic clearance. Item: C=CC(=O)N1CCN2c3c(cnc4cc(-c5c(C)ccc6[nH]ncc56)c(Cl)cc34)OC[C@H]2C1 (single isomer, unassigned; atropisomer 2)
Reply: 1.81

Query: Requested field: log10 hepatocyte intrinsic clearance. Item: C=CC(=O)N1CCN2c3c(cnc4cc(-c5c(O)cccc5F)c(Cl)cc34)NC(=O)[C@H]2C1
Reply: 1.04

Query: Requested field: log10 hepatocyte intrinsic clearance. Item: C=CC(=O)N1CCN2c3c(cnc4cc(-c5c(C)ccc6[nH]ncc56)c(Cl)cc34)OCC[C@H]2C1
Reply: 2.01
